Attribution: ChEMBL document CHEMBL4334483

Molecular target: Stimulator of interferon genes protein (Homo sapiens, UniProt Q86WV6)
Sequence (Q86WV6 whole entry): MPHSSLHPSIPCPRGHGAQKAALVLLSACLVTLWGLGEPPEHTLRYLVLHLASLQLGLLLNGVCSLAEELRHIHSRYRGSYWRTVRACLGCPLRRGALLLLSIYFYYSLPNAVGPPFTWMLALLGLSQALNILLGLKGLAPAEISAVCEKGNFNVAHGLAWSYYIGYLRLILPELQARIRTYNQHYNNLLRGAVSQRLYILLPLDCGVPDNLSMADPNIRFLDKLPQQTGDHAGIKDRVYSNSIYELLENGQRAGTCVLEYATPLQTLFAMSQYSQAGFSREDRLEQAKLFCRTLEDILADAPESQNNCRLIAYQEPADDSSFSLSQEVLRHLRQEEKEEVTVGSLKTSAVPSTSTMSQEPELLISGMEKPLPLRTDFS
Test: Induction of STING in human PBMC assessed as increase in IFNbeta secretion
Quantity Kind: EC50 (µM)
State the answer as a number, implicitly in µM.

Measured EC50, CCn1nc(C)cc1C(=O)Nc1nc2cc(C(N)=O)ccc2n1CCCCn1c(NC(=O)c2cc(C)nn2CC)nc2cc(C(N)=O)ccc21 : 3.1
